Target: hFASN enzyme (full length) (Homo sapiens)
Construct: 10 μL hFASN enzyme (full length, 300 ng, purified in house); made in house
Assay: Fatty Acid Synthase (FASN) inhibition scintillation proximity assay
Assay type: biochemical
Details: read-out: Human FASN % inhibition @ 10 μM, 10 μM test compound
measured-parameter: inhibition at 10 µM (%)

>>> df
                                    compound   measured_parameter  recorded_result
 0  CS(=O)(=O)N1CCC2(CC1)N=C(c1ccc(-c3ccc4occc4c3)cc1)N(CC1CN(C(=O)C3CC3)C1)C2=O [compound 760]  inhibition at 10 µM               62
 1  Cc1sc2ccc(-c3ccc(C4=NC5(CC5)C(=O)N4C[C@@H]4CCN(C(=O)C5CC5)C4)c(F)c3)cc2c1C [compound 245]  inhibition at 10 µM               98
 2  O=C(C1CC1)N1CC[C@@H](CN2C(=O)C3(CC3)N=C2c2ccc(-c3ccc4c(c3)OCCO4)cc2)C1 [compound 456]  inhibition at 10 µM               65
 3  O=C(C1CC1)N1CC(CN2C(=O)C3(CC3)N=C2c2ccc(-c3ccc4cnc(F)cc4c3)cc2)C1 [compound 502]  inhibition at 10 µM               94
 4  Cc1cc(-c2ccc(-c3cnn(C(C)C)c3)cc2)ccc1C1=NC2(CC2)C(=O)N1CC1CN(C(=O)C2CC2)C1 [compound 325]  inhibition at 10 µM              100
 5  Cc1cc(-c2ccc3occc3c2)ccc1C1=NC2(CCCC2)C(=O)N1C[C@@H]1CCN(C(=O)C2CC2)C1 [compound 72]  inhibition at 10 µM              106
 6  Cc1cc2cc(-c3ccc(C4=NC5(CC5)C(=O)N4CC4CN(C(=O)C5CC5)C4)c(C)c3)ccc2[nH]1 [compound 263]  inhibition at 10 µM              105
 7  COC(=O)N1CC2(C1)N=C(c1ccc(-c3ccc4cccnc4c3)cc1)N(C[C@@H]1CCN(C(=O)[C@H]3CCCO3)C1)C2=O [compound 730]  inhibition at 10 µM              102
 8  Cn1ncc2cc(-c3ccc(C4=NC5(CC5)C(=O)N4CC4CN(C(=O)C5CC5)C4)c(Cl)c3)ccc21 [compound 584]  inhibition at 10 µM               91
 9  O=C(C1CC1)N1CCC(CN2C(=O)C3(CC3)N=C2c2ccc(-c3ccc4scnc4c3)cc2)CC1 [compound 57]  inhibition at 10 µM             88.1
10  O=C(C1CC1)N1CC[C@@H](CN2C(=O)C3(CC3)N=C2c2ccc(-c3ccc(F)cc3)cc2)C1 [compound 105]  inhibition at 10 µM              104
11  N#Cc1cc2cc(-c3ccc(C4=NC5(CC5)C(=O)N4C[C@@H]4CCN(C(=O)C5CC5)C4)c(F)c3)ccc2o1 [compound 254]  inhibition at 10 µM              100
12  N#Cc1ccc2cc(-c3ccc(C4=NC5(CC5)C(=O)N4CC4CN(C(=O)C5CCO5)C4)c(F)c3)ccc2c1 (centres unmarked) [compound 226]  inhibition at 10 µM               98
13  Cc1cc2cc(-c3ccc(C4=NC5(CC5)C(=O)N4CC4CN(C(=O)C5(C)CC5)C4)c(F)c3)ccc2s1 [compound 352]  inhibition at 10 µM               94

###

Biological target: hFASN enzyme (full length) (Homo sapiens, UniProt P49327)
Construct: 10 μL hFASN enzyme (full length, 300 ng, purified in house); made in house
Sequence (P49327 whole entry): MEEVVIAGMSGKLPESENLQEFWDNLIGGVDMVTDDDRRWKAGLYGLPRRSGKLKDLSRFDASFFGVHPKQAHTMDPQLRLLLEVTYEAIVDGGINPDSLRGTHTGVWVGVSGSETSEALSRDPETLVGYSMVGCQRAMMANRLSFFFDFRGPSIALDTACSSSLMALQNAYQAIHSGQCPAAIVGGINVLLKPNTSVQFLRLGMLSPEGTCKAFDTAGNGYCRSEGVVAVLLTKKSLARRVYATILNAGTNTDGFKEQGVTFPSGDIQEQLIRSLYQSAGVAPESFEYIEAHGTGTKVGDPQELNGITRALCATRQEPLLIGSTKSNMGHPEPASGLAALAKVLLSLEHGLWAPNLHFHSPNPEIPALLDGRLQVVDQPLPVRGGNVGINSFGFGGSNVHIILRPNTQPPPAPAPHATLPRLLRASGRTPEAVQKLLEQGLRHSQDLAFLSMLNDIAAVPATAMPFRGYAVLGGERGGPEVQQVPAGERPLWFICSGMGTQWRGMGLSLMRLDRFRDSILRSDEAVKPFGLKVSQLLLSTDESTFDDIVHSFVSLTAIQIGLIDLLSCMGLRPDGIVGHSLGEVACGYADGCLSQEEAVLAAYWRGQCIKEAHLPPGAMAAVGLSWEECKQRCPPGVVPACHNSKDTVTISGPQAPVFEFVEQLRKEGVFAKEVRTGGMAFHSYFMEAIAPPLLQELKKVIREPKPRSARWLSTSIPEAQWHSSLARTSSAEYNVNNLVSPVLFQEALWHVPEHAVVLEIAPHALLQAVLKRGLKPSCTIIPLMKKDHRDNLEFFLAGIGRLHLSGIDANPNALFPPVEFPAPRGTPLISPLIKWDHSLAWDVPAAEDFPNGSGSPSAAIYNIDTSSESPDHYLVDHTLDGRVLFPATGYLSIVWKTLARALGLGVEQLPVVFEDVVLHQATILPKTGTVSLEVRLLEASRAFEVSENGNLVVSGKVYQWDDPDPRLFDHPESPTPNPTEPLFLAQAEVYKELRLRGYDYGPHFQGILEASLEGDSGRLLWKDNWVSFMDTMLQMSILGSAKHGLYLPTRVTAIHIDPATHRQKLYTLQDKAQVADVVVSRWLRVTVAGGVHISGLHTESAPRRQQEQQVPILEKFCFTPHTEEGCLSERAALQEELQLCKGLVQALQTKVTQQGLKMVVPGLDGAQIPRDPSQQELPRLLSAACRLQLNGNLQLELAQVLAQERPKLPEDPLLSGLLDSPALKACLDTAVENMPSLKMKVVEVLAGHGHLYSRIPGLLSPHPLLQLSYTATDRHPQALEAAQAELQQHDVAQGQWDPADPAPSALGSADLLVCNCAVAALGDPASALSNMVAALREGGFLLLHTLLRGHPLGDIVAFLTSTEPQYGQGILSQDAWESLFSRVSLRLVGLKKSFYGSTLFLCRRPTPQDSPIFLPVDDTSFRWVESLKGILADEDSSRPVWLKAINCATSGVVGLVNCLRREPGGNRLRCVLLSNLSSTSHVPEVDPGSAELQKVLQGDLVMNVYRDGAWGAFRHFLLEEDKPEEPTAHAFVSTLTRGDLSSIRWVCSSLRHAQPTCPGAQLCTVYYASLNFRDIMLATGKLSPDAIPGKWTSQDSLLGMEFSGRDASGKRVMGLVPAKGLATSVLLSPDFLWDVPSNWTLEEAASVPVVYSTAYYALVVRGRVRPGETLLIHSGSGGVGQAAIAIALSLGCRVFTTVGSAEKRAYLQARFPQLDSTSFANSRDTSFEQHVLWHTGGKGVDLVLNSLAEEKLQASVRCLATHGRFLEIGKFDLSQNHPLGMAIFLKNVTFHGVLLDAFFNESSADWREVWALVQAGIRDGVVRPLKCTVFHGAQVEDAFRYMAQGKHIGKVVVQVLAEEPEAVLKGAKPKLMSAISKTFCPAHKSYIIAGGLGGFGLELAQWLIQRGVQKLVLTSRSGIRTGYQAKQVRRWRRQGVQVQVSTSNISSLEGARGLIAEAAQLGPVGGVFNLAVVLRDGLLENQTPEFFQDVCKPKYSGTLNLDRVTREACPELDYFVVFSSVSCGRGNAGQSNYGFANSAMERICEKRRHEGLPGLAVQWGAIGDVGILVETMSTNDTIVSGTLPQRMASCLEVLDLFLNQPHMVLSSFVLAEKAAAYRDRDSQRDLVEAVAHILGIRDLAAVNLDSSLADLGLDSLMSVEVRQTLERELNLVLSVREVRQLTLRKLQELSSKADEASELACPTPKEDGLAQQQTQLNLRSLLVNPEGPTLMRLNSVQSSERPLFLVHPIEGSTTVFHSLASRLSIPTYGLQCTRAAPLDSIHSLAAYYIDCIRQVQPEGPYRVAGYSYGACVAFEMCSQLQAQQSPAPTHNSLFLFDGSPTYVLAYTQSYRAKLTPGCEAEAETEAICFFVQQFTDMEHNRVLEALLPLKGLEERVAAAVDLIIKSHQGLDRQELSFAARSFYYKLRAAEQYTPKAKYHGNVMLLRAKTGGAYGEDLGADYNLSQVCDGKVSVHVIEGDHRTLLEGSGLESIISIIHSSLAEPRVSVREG
Assay: Fatty Acid Synthase (FASN) inhibition scintillation proximity assay
Type: biochemical
Conditions: read-out: Human FASN pIC50 (converted)
Decide using IC50 alone. Strictly below 200 nM: true. Equal to or above 200 nM: false.

In [3]: df
Out[3]:
                                    molecule                            assayed_target  classification
 0  O=C(C1CC1)N1CC[C@H](CN2C(=O)C3(CC3)N=C2c2ccc(-c3ccc4sccc4c3)cc2)C1  hFASN enzyme (full length) (Homo sapiens, UniProt P49327)            true
 1  Cc1cc(-c2ccc3c(cnn3C)c2)ccc1C1=NC2(CC2)C(=O)N1CC1CN(C(=O)C2CC2)C1  hFASN enzyme (full length) (Homo sapiens, UniProt P49327)            true
 2  O=C(C1CC1)N1CCC(CN2C(=O)C3(CC3)N=C2c2ccc(-c3ccc4[nH]ncc4c3)cc2)CC1  hFASN enzyme (full length) (Homo sapiens, UniProt P49327)           false
 3  Cc1cc(-c2ccc3occc3c2)ccc1C1=NC2(CC2)C(=O)N1C[C@@H]1CCN(C(=O)C2CC2)C1  hFASN enzyme (full length) (Homo sapiens, UniProt P49327)            true
 4  Cc1cc(-c2ccc(-c3cnn(C4CC4)c3)cc2)ccc1C1=NC2(CC2)C(=O)N1CC1CN(C(=O)C2(C)CC2)C1  hFASN enzyme (full length) (Homo sapiens, UniProt P49327)            true
 5  Cn1nccc1-c1ccc(-c2ccc(C3=NC4(CC4)C(=O)N3C[C@@H]3CCN(C(=O)C4CC4)C3)cc2)cc1  hFASN enzyme (full length) (Homo sapiens, UniProt P49327)           false
 6  Cc1cc(C2=NC3(CC3)C(=O)N2C[C@@H]2CCN(C(=O)C3CC3)C2)ccc1-c1ccc2[nH]ccc2c1  hFASN enzyme (full length) (Homo sapiens, UniProt P49327)            true
 7  COc1cc2cc(-c3ccc(C4=NC5(CC5)C(=O)N4C[C@@H]4CCN(C(=O)C5CC5)C4)cc3)ccc2cn1  hFASN enzyme (full length) (Homo sapiens, UniProt P49327)            true
 8  Cn1ncc2cc(-c3ccc(C4=NC5(CCOC5)C(=O)N4CC4CN(C(=O)[C@H]5CCCO5)C4)cc3)ccc21 (stereo partly drawn)  hFASN enzyme (full length) (Homo sapiens, UniProt P49327)           false
 9  Cc1nnc(-c2ccc(-c3ccc(C4=NC5(CCCC5)C(=O)N4C[C@@H]4CCN(C(=O)C5CC5)C4)c(C)c3)cc2)o1  hFASN enzyme (full length) (Homo sapiens, UniProt P49327)            true
10  O=C(N1CCCC1)N1CC[C@@H](CN2C(=O)C3(CCOCC3)N=C2c2ccc(-c3ccc4cccnc4c3)cc2)C1  hFASN enzyme (full length) (Homo sapiens, UniProt P49327)           false
11  Cn1ncc2cc(-c3ccc(C4=NC5(CCOC5)C(=O)N4C[C@@H]4CCN(C(=O)[C@H]5CCCO5)C4)cc3)ccc21 (stereo partly drawn)  hFASN enzyme (full length) (Homo sapiens, UniProt P49327)           false
12  COC(=O)N1CC[C@@H](CN2C(=O)C3(CCOC3)N=C2c2ccc(-c3ccc4cccnc4c3)cc2)C1 (stereo partly drawn)  hFASN enzyme (full length) (Homo sapiens, UniProt P49327)           false
13  Cn1cc(CCO)c2cc(-c3ccc(C4=NC5(CC5)C(=O)N4CC4CN(C(=O)C5CC5)C4)c(F)c3)ccc21  hFASN enzyme (full length) (Homo sapiens, UniProt P49327)            true
14  Cc1cc(-c2ccc3c(cnn3C)c2)ccc1C1=NC2(CC2)C(=O)N1CC1CN(C(=O)CC2CC2)C1  hFASN enzyme (full length) (Homo sapiens, UniProt P49327)           false
15  O=C(C1CC1)N1CC[C@@H](CN2C(=O)C3(CC3)N=C2c2ccc(-c3ccc4c(Cl)nccc4c3)cc2)C1  hFASN enzyme (full length) (Homo sapiens, UniProt P49327)            true
16  Cc1sc2ccc(-c3ccc(C4=NC5(CC5)C(=O)N4C[C@@H]4CCN(C(=O)C5CC5)C4)cc3)cc2c1C  hFASN enzyme (full length) (Homo sapiens, UniProt P49327)            true
17  Cc1cc(-c2ccc3c(cnn3C)c2)ccc1C1=NC2(CC2)C(=O)N1CC1CN(C(=O)C2(C)COC2)C1  hFASN enzyme (full length) (Homo sapiens, UniProt P49327)           false
18  COC(=O)N1CC(CN2C(=O)C3(CCOC3)N=C2c2ccc(-c3ccc4c(cnn4C)c3)cc2)C1 (stereo not drawn)  hFASN enzyme (full length) (Homo sapiens, UniProt P49327)           false
19  COC(=O)N1CC2(C1)N=C(c1ccc(-c3ccc(-c4cnn(C)c4)cc3)cc1)N(C[C@@H]1CCN(C(=O)N3CCCC3)C1)C2=O  hFASN enzyme (full length) (Homo sapiens, UniProt P49327)           false
20  COCc1nn(C)c2ccc(-c3ccc(C4=NC5(CC5)C(=O)N4CC4CN(C(=O)C5CC5)C4)c(C)c3)cc12  hFASN enzyme (full length) (Homo sapiens, UniProt P49327)           false
21  COC(=O)N1CC2(C1)N=C(c1ccc(-c3ccc(-c4cnn(C)c4)cc3)cc1)N(C[C@@H]1CCN(C(=O)C(C)O)C1)C2=O (stereo partly drawn)  hFASN enzyme (full length) (Homo sapiens, UniProt P49327)           false
22  CCC(=O)N1CC(CN2C(=O)C3(CC3)N=C2c2ccc(-c3ccc4c(cnn4C)c3)cc2C)C1  hFASN enzyme (full length) (Homo sapiens, UniProt P49327)            true
23  Cn1cc(-c2ccc(-c3ccc(C4=NC5(CCOC5)C(=O)N4CC4CN(C(=O)C5CC5)C4)cc3)cc2)cn1 (stereo not drawn)  hFASN enzyme (full length) (Homo sapiens, UniProt P49327)           false
24  Cn1ncc2cc(-c3ccc(C4=NC5(CCOCC5)C(=O)N4C[C@@H]4CCN(C(=O)N5CCCC5)C4)cc3)ccc21  hFASN enzyme (full length) (Homo sapiens, UniProt P49327)           false
25  COC(=O)N1CC[C@@H](CN2C(=O)C3(CCOCC3)N=C2c2ccc(-c3ccc(-c4cnn(C)c4)cc3)cc2)C1  hFASN enzyme (full length) (Homo sapiens, UniProt P49327)           false
